Biological target: UniProtKB P19327
Sequence (P19327 whole entry): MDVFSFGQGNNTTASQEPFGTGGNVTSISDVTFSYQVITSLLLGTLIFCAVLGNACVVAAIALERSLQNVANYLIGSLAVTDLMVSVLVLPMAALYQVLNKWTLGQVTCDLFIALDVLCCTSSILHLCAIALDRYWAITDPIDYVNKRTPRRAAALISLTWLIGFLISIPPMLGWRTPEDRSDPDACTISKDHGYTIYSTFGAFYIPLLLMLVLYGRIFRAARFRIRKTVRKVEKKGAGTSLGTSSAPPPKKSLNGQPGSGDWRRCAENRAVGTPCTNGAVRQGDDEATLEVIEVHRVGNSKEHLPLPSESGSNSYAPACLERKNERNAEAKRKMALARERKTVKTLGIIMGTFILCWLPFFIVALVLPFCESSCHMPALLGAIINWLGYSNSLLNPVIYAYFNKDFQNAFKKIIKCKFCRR
Type: cell membranes, CHO-K1, Membrane
Conditions: cho-k1
Measured quantity: IC50

Some solved entries appear below for comparison.
Give the reported value of IC50 for this record: O=C(O)COC(=O)Cc1ccccc1Nc1c(Cl)cccc1Cl
Not Active

Let me know recorded IC50 for O=C1CN(/N=C/c2ccc([N+](=O)[O-])o2)C(=O)N1 , thanks.
Not Active

Look up and report measured IC50 for this entry: COc1cc([C@@H]2c3cc4c(cc3[C@H](O)[C@H]3COC(=O)[C@H]23)OCO4)cc(OC)c1OC
Not Active

Quickly give me recorded IC50 for C[C@H]1C[C@H]2[C@@H]3CCC4=CC(=O)C=C[C@]4(C)[C@@]3(F)[C@@H](O)C[C@]2(C)[C@@]1(O)C(=O)CO
Not Active

Specify measured IC50 for CC(Cl)(Cl)Cl .
Not Active

New cases:
Give IC50 for O=C(OC[C@H]1O[C@@H](OC(=O)c2cc(O)c(O)c(OC(=O)c3cc(O)c(O)c(O)c3)c2)[C@H](OC(=O)c2cc(O)c(O)c(OC(=O)c3cc(O)c(O)c(O)c3)c2)[C@@H](OC(=O)c2cc(O)c(O)c(OC(=O)c3cc(O)c(O)c(O)c3)c2)[C@@H]1OC(=O)c1cc(O)c(O)c(OC(=O)c2cc(O)c(O)c(O)c2)c1)c1cc(O)c(O)c(OC(=O)c2cc(O)c(O)c(O)c2)c1
Not Active

Give reported IC50 value for COc1cc(NC(C)CCCN)c2ncccc2c1 (centres undefined)
Not Active

Answer with the recorded IC50 of NCC(CC(=O)O)c1ccc(Cl)cc1 (centres undefined) only.
Not Active

Give reported IC50 value for CC1(COc2ccc(CC3SC(=O)NC3=O)cc2)CCCCC1 (centres undefined)
Not Active

====

Biological target: UniProt P35372
Sequence (P35372 whole entry): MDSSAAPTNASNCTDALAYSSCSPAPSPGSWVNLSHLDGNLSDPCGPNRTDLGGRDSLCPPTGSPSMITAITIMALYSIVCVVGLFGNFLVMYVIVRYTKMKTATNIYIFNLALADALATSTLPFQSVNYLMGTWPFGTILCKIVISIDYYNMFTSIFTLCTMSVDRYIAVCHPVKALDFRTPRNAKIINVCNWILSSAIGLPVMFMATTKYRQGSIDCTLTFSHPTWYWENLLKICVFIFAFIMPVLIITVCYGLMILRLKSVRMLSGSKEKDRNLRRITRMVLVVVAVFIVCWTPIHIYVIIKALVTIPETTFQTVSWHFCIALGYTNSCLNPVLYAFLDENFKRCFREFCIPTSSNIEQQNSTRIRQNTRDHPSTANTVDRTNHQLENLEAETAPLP
Experiment: DRUGMATRIX: Opiate mu (OP3, MOP) radioligand binding (ligand: [3H] Diprenorphine)
Format: cell membranes, CHO-K1, Membrane
Conditions: cho-k1; Not Active = under 50% inhibition at 10 µM
Measured quantity: IC50

Examples from the recorded data:
Using known records, supply IC50 for C[C@H](C(=O)O)c1ccc2oc(-c3ccc(F)cc3)nc2c1 [FLUNOXAPROFEN]
Not Active

Output measured IC50 for this item: COC(=O)C[C@](O)(CCC(C)(C)O)C(=O)O[C@@H]1C(OC)=C[C@]23CCCN2CCc2cc4c(cc2[C@H]13)OCO4 [HARRINGTONINE]
Not Active

State its IC50: CCOC(=O)C1=C(C)NC(C)=C(C(=O)OCC)C1c1ccccc1/C=C/C(=O)OC(C)(C)C [LACIDIPINE]
Not Active

Please list IC50 recorded for the compound CO[C@H]1O[C@@H]2O[C@@]3(C)CC[C@H]4[C@H](C)CC[C@@H]([C@H]1C)[C@@]24OO3
Not Active

Supply reported IC50 belonging to this compound: CNC[C@H](O)c1ccc(O)c(O)c1 [EPINEPHRINE]
Not Active

New cases:
Supply IC50 value. Item: COC(=O)Nc1nc2ccc(C(=O)c3ccccc3)cc2[nH]1 [MEBENDAZOLE]
Not Active

Kindly indicate its recorded IC50. Item: COc1ccccc1OCCNCC(O)COc1cccc2[nH]c3ccccc3c12 (centres undefined) [CARVEDILOL]
Not Active

Complete the entry with IC50 for Oc1ncnc2[nH]ncc12 [ALLOPURINOL]
Not Active

Give recorded IC50. CC(=O)Nc1ccc2c(c1)Cc1ccccc1-2 [2-ACETYLAMINOFLUORENE]
Not Active
